Source listed as paper PMC3285689.

Target: T1, human LOX-12 (human) (UniProt P18054)
T1 sequence: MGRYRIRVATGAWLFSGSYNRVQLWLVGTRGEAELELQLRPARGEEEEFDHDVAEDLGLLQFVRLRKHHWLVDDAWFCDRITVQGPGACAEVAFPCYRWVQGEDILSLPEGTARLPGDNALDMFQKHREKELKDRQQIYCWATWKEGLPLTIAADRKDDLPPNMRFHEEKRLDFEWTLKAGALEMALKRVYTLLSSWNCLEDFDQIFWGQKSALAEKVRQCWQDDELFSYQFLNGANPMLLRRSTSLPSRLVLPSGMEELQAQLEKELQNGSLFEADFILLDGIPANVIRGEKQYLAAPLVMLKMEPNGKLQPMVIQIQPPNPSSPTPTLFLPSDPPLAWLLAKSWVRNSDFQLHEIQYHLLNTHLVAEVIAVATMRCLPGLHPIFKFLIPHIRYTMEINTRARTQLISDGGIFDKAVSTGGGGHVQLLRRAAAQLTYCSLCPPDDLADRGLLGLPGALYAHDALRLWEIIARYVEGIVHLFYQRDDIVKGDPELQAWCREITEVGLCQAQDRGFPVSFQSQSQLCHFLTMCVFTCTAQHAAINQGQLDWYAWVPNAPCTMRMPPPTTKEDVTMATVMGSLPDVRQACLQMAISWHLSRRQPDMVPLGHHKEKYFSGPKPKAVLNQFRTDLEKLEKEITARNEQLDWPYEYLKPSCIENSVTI
Test: enzyme inhibition kinetics (spectrophotometric); 1.0 µM LOX-12 incubated with peptide (25-100 µM) for 30 min; arachidonic acid 20-120 µM, 0.2% Tween-20, 50 mM potassium phosphate pH 7.2; absorbance at 269 nm; competitive Ki from the Michaelis-Menten equation (GraphPad Prism)
Result Type: pKi
Give bare numbers, as −log10 of the molar value.

Incoming: Look at this binder and give its reported pKi. YWCS
Outgoing: 5.14
